Each record here notes measured IC50.
System: BaF3-EGFR^L858R/C797S cells
Experiment: BaF3 cell proliferation inhibition experiment (CCK-8)
Assay type: cell-based
Conditions: Ba/F3 EGFR-L858R, 72 h, read-out: BaF3-EGFR^L858R/C797S (IC50 nM)

| compound | unitsText | qualifierSymbol | IC50 |
| --- | --- | --- | --- |
| CCc1cc(Nc2ncc(Cl)c(Nc3ccc(C)c(C)c3P(C)(C)=O)n2)c(OC)cc1N1CCC(N2C[C@H]3CC[C@@H](C2)N3C)CC1 | nM | = | 116 |
| C=CC(=O)Nc1cc(Nc2nccc(-c3cn(C)c4ccccc34)n2)c(OC)cc1N(C)CCN(C)C [AZD9291, reference compound] | nM | > | 1000 |
| CCc1cc(Nc2ncc(Cl)c(Nc3ccc(C)c(C)c3P(C)(C)=O)n2)c(OC)cc1N1CC2(CCN(C)CC2)C1 | nM | = | 158 |
